# Target Of Assay: UniProtKB Q9NZJ5
# Sequence (Q9NZJ5 30-1116): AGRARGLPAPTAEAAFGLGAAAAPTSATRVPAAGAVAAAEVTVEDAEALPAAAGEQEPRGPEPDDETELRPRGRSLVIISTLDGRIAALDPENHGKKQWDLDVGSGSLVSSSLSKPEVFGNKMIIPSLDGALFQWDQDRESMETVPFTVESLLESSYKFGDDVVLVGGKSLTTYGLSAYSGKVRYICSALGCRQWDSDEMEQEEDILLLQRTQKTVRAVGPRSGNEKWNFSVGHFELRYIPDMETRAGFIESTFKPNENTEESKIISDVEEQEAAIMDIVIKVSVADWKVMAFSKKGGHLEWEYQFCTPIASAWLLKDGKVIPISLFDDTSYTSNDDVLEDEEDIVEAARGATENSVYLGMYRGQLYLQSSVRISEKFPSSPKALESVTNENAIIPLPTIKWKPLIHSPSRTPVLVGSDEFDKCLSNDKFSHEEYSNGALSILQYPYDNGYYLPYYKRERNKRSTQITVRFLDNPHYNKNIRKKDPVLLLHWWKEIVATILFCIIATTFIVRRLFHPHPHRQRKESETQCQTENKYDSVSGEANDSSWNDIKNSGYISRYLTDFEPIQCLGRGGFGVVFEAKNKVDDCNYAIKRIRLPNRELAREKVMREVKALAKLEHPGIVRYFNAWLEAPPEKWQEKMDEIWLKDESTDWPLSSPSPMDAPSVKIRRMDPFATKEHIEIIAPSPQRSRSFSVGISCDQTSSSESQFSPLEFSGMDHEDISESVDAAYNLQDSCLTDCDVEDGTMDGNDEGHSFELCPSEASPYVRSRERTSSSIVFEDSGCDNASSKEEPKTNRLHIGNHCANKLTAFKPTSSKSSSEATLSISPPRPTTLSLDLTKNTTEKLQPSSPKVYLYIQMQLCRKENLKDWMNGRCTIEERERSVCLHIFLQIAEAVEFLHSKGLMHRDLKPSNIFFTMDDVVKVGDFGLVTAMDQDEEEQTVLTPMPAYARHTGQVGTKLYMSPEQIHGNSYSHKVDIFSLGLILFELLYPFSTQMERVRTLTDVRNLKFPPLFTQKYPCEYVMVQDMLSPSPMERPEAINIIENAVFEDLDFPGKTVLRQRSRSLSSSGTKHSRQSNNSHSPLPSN
# Assay Procedure: Cell-based PERK inhibition assay (TR-FRET, phosphorylation of GFP-eIF2 alpha in HEK293 cells, tunicamycin)
# Experimental Parameters: HEK293 (LanthaScreen eIF2α GripTite) cells, compounds 60 min, tunicamycin 2 microg/ml 120 min; read-out: P-eIF2alpha_Lantha_cell pIC50 (converted)
Property Measured: log10 of IC50 (log10 of the value in nM)
log10 IC50, nM

Briefly, log10 of IC50 measured for COc1cc2ncnc(Nc3ccc4c(c3)CCN4C(=O)Cc3cccs3)c2cc1OC [Compound 20] : 3.10

Consider COc1cc2ncnc(Nc3ccc4c(c3)CCN4C(=O)Cn3nc(C)c4ccccc43)c2cc1OC [Compound 9] . Its measured log10 of IC50 is 2.40

For reference, reported log10 of IC50 for COc1cc2ncnc(Nc3ccc4c(c3)CCN4C(=O)Cc3c(-c4cnoc4)cnn3C)c2cc1OC [Compound 50] stands at 3.50

get_value(item= COc1cc2ncnc(Nc3ccc4c(c3)CCN4C(=O)Cc3cc(F)cc(C(F)(F)F)c3)c2cc1OC [Compound 43] , readout=log10 of IC50) returns 3.20

For this compound ( COc1ccc2[nH]c(C)c(CC(=O)N3CCc4cc(Nc5ncnc6cc(OC)c(OC)cc56)ccc43)c2c1 [Compound 6] ), measured log10 of IC50 is 1.90

Documented log10 of IC50 of COc1cc2ncnc(Nc3ccc4c(c3)CCN4C(=O)Cc3cc(F)ccc3F)c2cc1OC [Compound 42] : 2.80
